These measurements were taken from patent US10670605B2.

Molecular target: cysteines in MDA-MB-231 and Ramos cells (Homo sapiens, UniProt Q9BRJ7)
Sequence (Q9BRJ7 whole entry, the tested form may be a part): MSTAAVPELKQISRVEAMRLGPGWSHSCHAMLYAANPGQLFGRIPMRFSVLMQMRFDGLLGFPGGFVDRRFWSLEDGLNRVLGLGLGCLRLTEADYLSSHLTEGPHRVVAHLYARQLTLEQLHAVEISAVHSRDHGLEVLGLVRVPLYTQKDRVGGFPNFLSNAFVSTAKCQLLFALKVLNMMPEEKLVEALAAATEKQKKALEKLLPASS
Experiment: Competitive isoTOP-ABPP in situ (fragment-treated cells)
Type: cell-based
Conditions: 200 μM, insitu, 231
Binary call on isoTOP-ABPP ratio Q9BRJ7_C88: fulfilled from 1 upward, not fulfilled beneath that.

In [3]: df
Out[3]:
                                   compound    label_value
0  CC1CCc2ccccc2N1C(=O)CCl (centres unmarked)      fulfilled
1  C=CC(=O)N(Cc1cccnc1)c1cc(C(F)(F)F)cc(C(F)(F)F)c1      fulfilled
2                    COc1ccccc1OCCNC(=O)CCl      fulfilled
3  C=CC(=O)Nc1cc(F)c(N2CCN(C(=O)OC(C)(C)C)CC2)c(F)c1  not fulfilled

* * *

Biological target: SMARCC2 C145 (Q8TAQ2) (Homo sapiens)
Sequence (Q8TAQ2 whole entry): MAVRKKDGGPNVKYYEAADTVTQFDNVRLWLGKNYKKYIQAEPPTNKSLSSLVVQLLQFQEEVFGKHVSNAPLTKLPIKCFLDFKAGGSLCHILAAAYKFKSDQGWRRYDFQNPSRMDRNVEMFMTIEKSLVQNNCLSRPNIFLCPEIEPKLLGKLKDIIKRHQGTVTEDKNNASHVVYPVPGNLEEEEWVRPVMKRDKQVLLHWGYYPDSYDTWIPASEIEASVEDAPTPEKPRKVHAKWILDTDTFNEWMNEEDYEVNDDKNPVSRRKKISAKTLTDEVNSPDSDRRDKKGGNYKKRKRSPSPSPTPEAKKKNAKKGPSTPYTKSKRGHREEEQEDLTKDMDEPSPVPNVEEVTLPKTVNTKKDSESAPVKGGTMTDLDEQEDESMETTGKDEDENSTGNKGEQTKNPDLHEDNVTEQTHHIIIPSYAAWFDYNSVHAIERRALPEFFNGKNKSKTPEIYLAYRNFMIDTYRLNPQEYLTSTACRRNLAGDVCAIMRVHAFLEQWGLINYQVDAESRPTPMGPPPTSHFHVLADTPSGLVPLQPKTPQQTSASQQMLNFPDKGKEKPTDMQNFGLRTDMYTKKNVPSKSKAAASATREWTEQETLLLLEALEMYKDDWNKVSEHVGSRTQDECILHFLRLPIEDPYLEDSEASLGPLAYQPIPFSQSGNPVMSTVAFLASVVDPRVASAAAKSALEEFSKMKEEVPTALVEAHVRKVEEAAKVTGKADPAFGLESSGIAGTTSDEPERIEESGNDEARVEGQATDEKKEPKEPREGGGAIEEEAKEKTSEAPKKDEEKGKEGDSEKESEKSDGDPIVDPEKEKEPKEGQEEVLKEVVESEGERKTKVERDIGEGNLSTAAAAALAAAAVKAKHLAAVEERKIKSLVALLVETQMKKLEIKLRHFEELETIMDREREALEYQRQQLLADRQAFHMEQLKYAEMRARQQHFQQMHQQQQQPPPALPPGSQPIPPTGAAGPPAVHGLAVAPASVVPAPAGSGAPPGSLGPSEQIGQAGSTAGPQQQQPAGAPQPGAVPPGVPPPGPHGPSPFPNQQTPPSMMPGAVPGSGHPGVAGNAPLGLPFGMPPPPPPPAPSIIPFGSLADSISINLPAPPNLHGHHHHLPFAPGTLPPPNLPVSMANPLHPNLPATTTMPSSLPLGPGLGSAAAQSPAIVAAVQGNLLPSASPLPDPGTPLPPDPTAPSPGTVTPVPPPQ
Experiment: Competitive isoTOP-ABPP, cell lysates
Format: binding
Conditions: 500 μm, in-vitro_ramos
Binary call on isoTOP-ABPP reactivity ratio, Q8TAQ2_C145: t from 2 upward, f beneath that.

In [3]: df
Out[3]:
                                   compound  label_value
0  Cc1ccc(C=C(C#N)C(=O)NCCN2CCOCC2)cc1 [compound 41]            t
1  CC(C)(C)c1cc(NC(=O)CCl)on1 [compound 32]            t
2   C=CC(=O)Nc1cc(C)c(Br)cc1C [compound 40]            f
3  C=CC(=O)Nc1cc(F)c(N2CCN(C(=O)OC(C)(C)C)CC2)c(F)c1 [compound 38]            f
4  CCN(CC)c1ccc(S(N)(=O)=O)cc1NC(=O)CCl [compound 30]            f
5  C=CC(=O)N(Cc1cccnc1)c1cc(C(F)(F)F)cc(C(F)(F)F)c1 [compound 31]            f

* * *

Target: cysteines in MDA-MB-231 and Ramos cells (Homo sapiens, UniProt P27707)
Sequence (P27707 whole entry, the tested form may be a part): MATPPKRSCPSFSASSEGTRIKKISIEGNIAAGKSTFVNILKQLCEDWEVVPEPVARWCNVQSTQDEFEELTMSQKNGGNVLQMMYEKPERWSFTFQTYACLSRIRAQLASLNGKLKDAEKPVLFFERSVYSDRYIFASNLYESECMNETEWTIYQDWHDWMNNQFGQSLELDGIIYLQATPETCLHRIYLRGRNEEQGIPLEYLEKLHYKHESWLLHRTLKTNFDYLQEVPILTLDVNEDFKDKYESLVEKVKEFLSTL
Test: Competitive isoTOP-ABPP in situ (fragment-treated cells)
Assay type: cell-based
Settings: 200 μM, insitu, 231
We begin with a simple list: items and their reported isoTOP-ABPP ratio P27707_C9.
Quantity Kind: isoTOP-ABPP ratio P27707_C9

In [3]: df
Out[3]:
                                   molecule                quantity_kind  result
0  O=C(CCl)NC(=O)NC12CC3CC(CC(C3)C1)C2 [compound 12]  isoTOP-ABPP ratio P27707_C9     1.4
1  Cc1ccc(C=C(C#N)C(=O)NCCN2CCOCC2)cc1 [compound 41]  isoTOP-ABPP ratio P27707_C9     0.4
2  O=C(CCl)NCCc1c[nH]c2ccccc12 [compound 13]  isoTOP-ABPP ratio P27707_C9     1.0
3  C=CC(=O)Nc1cc(F)c(N2CCN(C(=O)OC(C)(C)C)CC2)c(F)c1 [compound 38]  isoTOP-ABPP ratio P27707_C9     1.8
4  O=C(CCl)N1CCN(S(=O)(=O)c2ccccc2F)CC1 [compound 10]  isoTOP-ABPP ratio P27707_C9     1.9
5  O=C(CCl)NC12CC3CC(CC(C3)C1)C2 [compound 21]  isoTOP-ABPP ratio P27707_C9     1.3
